Please respond with reported TGI for every item in the list.
Test system: EKVX NSCLC
Test: NCI tumour cell line growth inhibition, 48 h

For each entry beneath this line, provide reported TGI.
1. CCOC(=O)c1c(NN2CCN(CC(F)(F)F)CC2)oc(/C=C2\C=Nc3ncccc32)c1O
2. Cc1cc(Cl)ccc1NC(=O)/C(=N\NC(C)(C)C)C(C#N)c1nc(-c2ccc([N+](=O)[O-])cc2)cs1 (stereo not drawn)
3. CCOC(=O)C1CC(=O)C=C2CCCCC21 (stereo not drawn)
4. O=C1Nc2cccc(Cl)c2/C1=C\c1cccnc1
5. Cn1cc(NC(=O)Nc2cc(C(=O)Nc3cc(C(=O)Nc4ccc5cc(S(=O)(=O)O)cc(S(=O)(=O)O)c5c4)n(C)c3)n(C)c2)cc1C(=O)Nc1cc(C(=O)Nc2ccc3cc(S(=O)(=O)O)cc(S(=O)(=O)O)c3c2)n(C)c1
6. CC(=O)Nc1ccc(S(=O)(=O)c2nnc(NC(C)=O)s2)cc1

Result:
1: 33.2 µM; 2: > 100 µM; 3: > 100 µM; 4: 93.1 µM; 5: > 100 µM; 6: > 100 µM

For each entry beneath this line, provide reported TGI.
1. N#C/C(c1nc2ccccc2[nH]1)=c1\s/c(=C/c2ccccc2)c(=O)n1-c1ccccc1
2. COc1ccccc1NC1Oc2cc3c(cc2C(c2cc(OC)c(OC)c(OC)c2)C1C)OCO3 (stereo not drawn)

Result:
> 100 µM
> 100 µM

For each entry beneath this line, provide reported TGI.
1. c1ccc(/C(=N\Nc2nc3ccccc3[nH]2)c2ccccn2)cc1
2. C[C@]12Cc3conc3C(O)=C1CC[C@@H]1C2CC[C@@]2(C)C1CC[C@@H]2O (stereo partly drawn)
3. O/N=C1/CCCC/C1=C\c1ccc(Cl)c(Cl)c1

Result:
1: 2.96 µM; 2: 64.7 µM; 3: > 100 µM

---

Test system: OVCAR-3 ovarian
Experiment: NCI tumour cell line growth inhibition, 48 h
Please respond with reported TGI for every item in the list.

Recorded results for 3 compounds are shown here.
- compound: "CN(C)c1ccc(N=C2N=C(Nc3ccccc3)C(=Nc3ccccc3)S2)cc1"
  observed_measurement: "> 100 µM"
- compound: "CC(=O)NC(CCCNC(=O)N(C)N=O)C(=O)NCc1ccccc1 (stereo unspecified)"
  observed_measurement: "> 100 µM"
- compound: "CCS1=C2C(=O)CC(C)(C)CC2=Nc2ccccc21 (stereo unspecified)"
  observed_measurement: "> 100 µM"

For each entry beneath this line, provide reported TGI.
1. CCOc1ccccc1/C=N\N=C(N/N=C/c1ccccc1OCC)N/N=C/c1ccccc1OCC
2. COc1cc2c(cc1OC)[C@@H]1C(=O)c3ccc4c(c3O[C@@H]1CO2)C[C@H](C(C)C)O4
3. COC(=O)CN(CC(=O)NCCNC(=O)OC(C)(C)C)C1CCCCC1N(CC(=O)OC)CC(=O)OC (stereo unspecified)
4. Cc1c(-c2ccccc2)c(C#N)c2nnn(-c3ccc(Cl)cc3)c(=O)n12

Result:
1: 6.79 µM; 2: > 41.1 µM; 3: > 100 µM; 4: 52.2 µM

For each entry beneath this line, provide reported TGI.
1. O=C(NCCCCCCCCNC(=O)Nc1cccc2ccccc12)Nc1cccc2ccccc12
2. COc1ccc2c(n1)Sc1nc3ccccc3nc1N2
3. CCN1/C(=C/C(C)=C/c2sc3ccc4ccccc4c3[n+]2CC)Sc2ccc3ccccc3c21
4. O=C1c2cc3c(cc2CC12Cc1ccccc1C2)CCC3
5. COc1ccccc1C#C/C=C\C#Cc1ccccc1C#N

Result:
1. > 100 µM
2. > 100 µM
3. 0.317 µM
4. > 100 µM
5. 24.5 µM
